# System: MDA-MB-435
# protocol-description: Cytotoxicity against human MDA-MB-435 cells
# Format: functional
measurement-kind: GI50 (nM)

[[record]]
compound = "COc1cc(/C=C/c2cc(OC)c3c(C/C=C(\\C)CCC=C(C)C)c[nH]c3c2)cc2c1O[C@]1(C)CC[C@@H](O)C(C)(C)[C@H]1C2"
measurement_kind = "GI50"
recorded_measurement = 1620

[[record]]
compound = "COc1cc(/C=C/c2cc(OC)c3c(CC=C(C)C)c[nH]c3c2)cc2c1O[C@]1(C)CC[C@@H](O)C(C)(C)[C@H]1C2"
measurement_kind = "GI50"
recorded_measurement = 646

[[record]]
compound = "COc1cc(/C=C/c2cc(O)c3cc[nH]c3c2)cc2c1O[C@]1(C)CC[C@@H](O)C(C)(C)[C@H]1C2"
measurement_kind = "GI50"
recorded_measurement = 933

[[record]]
compound = "COc1cc(/C=C/c2cc(OC)c3cc[nH]c3c2)cc2c1O[C@]1(C)CC[C@@H](O)C(C)(C)[C@H]1C2"
measurement_kind = "GI50"
recorded_measurement = 355

[[record]]
compound = "COc1cc(/C=C/c2cc(O)c3cc(CC=C(C)C)[nH]c3c2)cc2c1O[C@]1(C)CC[C@@H](O)C(C)(C)[C@H]1C2"
measurement_kind = "GI50"
recorded_measurement = 3800

[[record]]
compound = "COc1cc(/C=C/c2cc(O)c3c(CC=C(C)C)c[nH]c3c2)cc2c1O[C@]1(C)CC[C@@H](O)C(C)(C)[C@H]1C2"
measurement_kind = "GI50"
recorded_measurement = 676

[[record]]
compound = "COc1cc(/C=C/c2cc(O)c3c(C/C=C(\\C)CCC=C(C)C)c[nH]c3c2)cc2c1O[C@]1(C)CC[C@@H](O)C(C)(C)[C@H]1C2"
measurement_kind = "GI50"
recorded_measurement = 4070

[[record]]
compound = "COc1cc(/C=C/c2cc(O)c3c(c2)C[C@@H]2C(C)(C)[C@H](O)CC[C@@]2(C)O3)cc2c1ccn2C"
measurement_kind = "GI50"
recorded_measurement = 389

[[record]]
compound = "CC1(C)[C@H](O)CC[C@@]2(C)Oc3c(O)cc(/C=C/c4cc(O)c5cc[nH]c5c4)cc3C[C@H]12"
measurement_kind = "GI50"
recorded_measurement = 661

[[record]]
compound = "COc1cc(/C=C/c2cc(O)c3ccn(C)c3c2)cc2c1O[C@]1(C)CC[C@@H](O)C(C)(C)[C@H]1C2"
measurement_kind = "GI50"
recorded_measurement = 1450

[[record]]
compound = "COc1cc(/C=C/c2cc(OC)c3ccn(C)c3c2)cc2c1O[C@]1(C)CC[C@@H](O)C(C)(C)[C@H]1C2"
measurement_kind = "GI50"
recorded_measurement = 1020

[[record]]
compound = "COc1cc(/C=C/c2cc(O)c3c(c2)C[C@@H]2C(C)(C)[C@H](O)CC[C@@]2(C)O3)cc2[nH]cc(CC=C(C)C)c12"
measurement_kind = "GI50"
recorded_measurement = 437


---

# Test system: IGROV-1
# protocol-description: Cytotoxicity against human IGROV1 cells
# Format: functional
# experimental-context: read-out: pLC50 (the source's name) (converted)
Returns: string. Value is rule met if measured CC50 is below 90 µM, and rule not met if it is greater than or equal to it.

[[record]]
compound = "CC1(C)[C@H](O)CC[C@@]2(C)Oc3c(O)cc(/C=C/c4cc(O)c5cc[nH]c5c4)cc3C[C@H]12"
class_assignment = "rule not met"

[[record]]
compound = "COc1cc(/C=C/c2cc(OC)c3ccn(C)c3c2)cc2c1O[C@]1(C)CC[C@@H](O)C(C)(C)[C@H]1C2"
class_assignment = "rule not met"

[[record]]
compound = "COc1cc(/C=C/c2cc(OC)c3cc[nH]c3c2)cc2c1O[C@]1(C)CC[C@@H](O)C(C)(C)[C@H]1C2"
class_assignment = "rule not met"

[[record]]
compound = "COc1cc(/C=C/c2cc(O)c3c(CC=C(C)C)c[nH]c3c2)cc2c1O[C@]1(C)CC[C@@H](O)C(C)(C)[C@H]1C2"
class_assignment = "rule met"

[[record]]
compound = "COc1cc(/C=C/c2cc(O)c3c(C/C=C(\\C)CCC=C(C)C)c[nH]c3c2)cc2c1O[C@]1(C)CC[C@@H](O)C(C)(C)[C@H]1C2"
class_assignment = "rule not met"

[[record]]
compound = "COc1cc(/C=C/c2cc(O)c3cc[nH]c3c2)cc2c1O[C@]1(C)CC[C@@H](O)C(C)(C)[C@H]1C2"
class_assignment = "rule met"

[[record]]
compound = "COc1cc(/C=C/c2cc(OC)c3c(CC=C(C)C)c[nH]c3c2)cc2c1O[C@]1(C)CC[C@@H](O)C(C)(C)[C@H]1C2"
class_assignment = "rule not met"

[[record]]
compound = "COc1cc(/C=C/c2cc(O)c3ccn(C)c3c2)cc2c1O[C@]1(C)CC[C@@H](O)C(C)(C)[C@H]1C2"
class_assignment = "rule not met"

[[record]]
compound = "COc1cc(/C=C/c2cc(O)c3cc(CC=C(C)C)[nH]c3c2)cc2c1O[C@]1(C)CC[C@@H](O)C(C)(C)[C@H]1C2"
class_assignment = "rule not met"


---

Overview of recorded log10 GI50 for various compounds
# Tested on: BT-549
# protocol-description: Cytotoxicity against human BT549 cells
# Assay type: functional
measurement-kind: log10 GI50 (log10 of the value in nM)

[[record]]
compound = "COc1cc(/C=C/c2cc(OC)c3cc[nH]c3c2)cc2c1O[C@]1(C)CC[C@@H](O)C(C)(C)[C@H]1C2"
recorded_measurement = 2.36

[[record]]
compound = "COc1cc(/C=C/c2cc(O)c3c(c2)C[C@@H]2C(C)(C)[C@H](O)CC[C@@]2(C)O3)cc2c1ccn2C"
recorded_measurement = 2.14

[[record]]
compound = "COc1cc(/C=C/c2cc(OC)c3c(CC=C(C)C)c[nH]c3c2)cc2c1O[C@]1(C)CC[C@@H](O)C(C)(C)[C@H]1C2"
recorded_measurement = 2.55

[[record]]
compound = "COc1cc(/C=C/c2cc(O)c3c(c2)C[C@@H]2C(C)(C)[C@H](O)CC[C@@]2(C)O3)cc2[nH]cc(CC=C(C)C)c12"
recorded_measurement = 2.68

[[record]]
compound = "COc1cc(/C=C/c2cc(O)c3cc(CC=C(C)C)[nH]c3c2)cc2c1O[C@]1(C)CC[C@@H](O)C(C)(C)[C@H]1C2"
recorded_measurement = 3.57


---

# Tested on: NCI-H522
# protocol-description: Cytotoxicity against human NCI-H522 cells
# Type: functional
# experimental-context: read-out: pTGI (converted)
measurement-kind: TGI

[[record]]
compound = "COc1cc(/C=C/c2cc(OC)c3ccn(C)c3c2)cc2c1O[C@]1(C)CC[C@@H](O)C(C)(C)[C@H]1C2"
recorded_measurement = "8.13 µM"

[[record]]
compound = "COc1cc(/C=C/c2cc(O)c3c(c2)C[C@@H]2C(C)(C)[C@H](O)CC[C@@]2(C)O3)cc2[nH]cc(CC=C(C)C)c12"
recorded_measurement = "7.24 µM"

[[record]]
compound = "COc1cc(/C=C/c2cc(O)c3cc(CC=C(C)C)[nH]c3c2)cc2c1O[C@]1(C)CC[C@@H](O)C(C)(C)[C@H]1C2"
recorded_measurement = "43.7 µM"


---

# System: SNB-75
# protocol-description: Cytotoxicity against human SNB75 cells
# Assay type: functional
# experimental-context: read-out: pLC50 (the source's name) (converted)
measurement-kind: CC50

[[record]]
compound = "COc1cc(/C=C/c2cc(O)c3c(C/C=C(\\C)CCC=C(C)C)c[nH]c3c2)cc2c1O[C@]1(C)CC[C@@H](O)C(C)(C)[C@H]1C2"
measurement_kind = "CC50"
recorded_measurement = "> 100 µM"

[[record]]
compound = "COc1cc(/C=C/c2cc(O)c3cc[nH]c3c2)cc2c1O[C@]1(C)CC[C@@H](O)C(C)(C)[C@H]1C2"
measurement_kind = "CC50"
recorded_measurement = "> 100 µM"

[[record]]
compound = "COc1cc(/C=C/c2cc(OC)c3c(CC=C(C)C)c[nH]c3c2)cc2c1O[C@]1(C)CC[C@@H](O)C(C)(C)[C@H]1C2"
measurement_kind = "CC50"
recorded_measurement = "75.9 µM"

[[record]]
compound = "COc1cc(/C=C/c2cc(O)c3c(c2)C[C@@H]2C(C)(C)[C@H](O)CC[C@@]2(C)O3)cc2c1ccn2C"
measurement_kind = "CC50"
recorded_measurement = "35.5 µM"


---

The following compounds are listed with their measured CC50 values.
# Tested on: K562
# protocol-description: Cytotoxicity against human K562 cells
# Assay type: functional
# experimental-context: read-out: pLC50 (the source's name) (converted)
measurement-kind: CC50

[[record]]
compound = "CC1(C)[C@H](O)CC[C@@]2(C)Oc3c(O)cc(/C=C/c4cc(O)c5cc[nH]c5c4)cc3C[C@H]12"
recorded_measurement = "> 100 µM"

[[record]]
compound = "COc1cc(/C=C/c2cc(O)c3cc[nH]c3c2)cc2c1O[C@]1(C)CC[C@@H](O)C(C)(C)[C@H]1C2"
recorded_measurement = "> 100 µM"

[[record]]
compound = "COc1cc(/C=C/c2cc(O)c3cc(CC=C(C)C)[nH]c3c2)cc2c1O[C@]1(C)CC[C@@H](O)C(C)(C)[C@H]1C2"
recorded_measurement = "> 100 µM"

[[record]]
compound = "COc1cc(/C=C/c2cc(OC)c3ccn(C)c3c2)cc2c1O[C@]1(C)CC[C@@H](O)C(C)(C)[C@H]1C2"
recorded_measurement = "> 100 µM"

[[record]]
compound = "COc1cc(/C=C/c2cc(OC)c3c(CC=C(C)C)c[nH]c3c2)cc2c1O[C@]1(C)CC[C@@H](O)C(C)(C)[C@H]1C2"
recorded_measurement = "> 100 µM"

[[record]]
compound = "COc1cc(/C=C/c2cc(OC)c3cc[nH]c3c2)cc2c1O[C@]1(C)CC[C@@H](O)C(C)(C)[C@H]1C2"
recorded_measurement = "> 100 µM"

[[record]]
compound = "COc1cc(/C=C/c2cc(OC)c3c(C/C=C(\\C)CCC=C(C)C)c[nH]c3c2)cc2c1O[C@]1(C)CC[C@@H](O)C(C)(C)[C@H]1C2"
recorded_measurement = "> 100 µM"

[[record]]
compound = "COc1cc(/C=C/c2cc(O)c3c(c2)C[C@@H]2C(C)(C)[C@H](O)CC[C@@]2(C)O3)cc2[nH]cc(CC=C(C)C)c12"
recorded_measurement = "> 100 µM"

[[record]]
compound = "COc1cc(/C=C/c2cc(O)c3c(C/C=C(\\C)CCC=C(C)C)c[nH]c3c2)cc2c1O[C@]1(C)CC[C@@H](O)C(C)(C)[C@H]1C2"
recorded_measurement = "> 100 µM"

[[record]]
compound = "COc1cc(/C=C/c2cc(O)c3c(c2)C[C@@H]2C(C)(C)[C@H](O)CC[C@@]2(C)O3)cc2c1ccn2C"
recorded_measurement = "89.1 µM"

[[record]]
compound = "COc1cc(/C=C/c2cc(O)c3c(CC=C(C)C)c[nH]c3c2)cc2c1O[C@]1(C)CC[C@@H](O)C(C)(C)[C@H]1C2"
recorded_measurement = "50.1 µM"

[[record]]
compound = "COc1cc(/C=C/c2cc(O)c3ccn(C)c3c2)cc2c1O[C@]1(C)CC[C@@H](O)C(C)(C)[C@H]1C2"
recorded_measurement = "> 100 µM"

